tested on: OVCAR-8; assay: Cytotoxicity against human OVCAR8 cells assessed as cell growth at 10 uM after 48 hrs by SRB assay; type: functional; conditions: OVCAR-8, 48 h, read-out: Activity
ENDPOINT LABEL: growth at 10 µM
Kindly report the value followed by its unit.

// worked examples, growth at 10 µM included
# returns recorded growth at 10 µM (system: OVCAR-8) for CCSc1nc2ccc3c(c2[nH]1)C(=O)c1ccccc1C3=O
96.8%

Query CN(C)CCCSc1nc2ccc3c(c2[nH]1)C(=O)c1ccccc1C3=O next
61.9%

Query O=C1c2ccccc2C(=O)c2c1ccc1nc(SCCN3CCCC3)[nH]c21 next
49.4%

Query O=C1c2ccccc2C(=O)c2c1ccc1nc3n(c21)CCS3 next
75.4%

Query O=C1c2ccccc2C(=O)c2c1ccc1[nH]c(=S)[nH]c21 next
140%

For the next question, use this compound.
# returns recorded growth at 10 µM (system: OVCAR-8) for CCCSc1nc2ccc3c(c2[nH]1)C(=O)c1ccccc1C3=O
44.7%
